This collection of values is drawn from patent US20230382904A1.

Molecular target: DLK (Homo sapiens (Human))
Sequence (Q12852 1-520): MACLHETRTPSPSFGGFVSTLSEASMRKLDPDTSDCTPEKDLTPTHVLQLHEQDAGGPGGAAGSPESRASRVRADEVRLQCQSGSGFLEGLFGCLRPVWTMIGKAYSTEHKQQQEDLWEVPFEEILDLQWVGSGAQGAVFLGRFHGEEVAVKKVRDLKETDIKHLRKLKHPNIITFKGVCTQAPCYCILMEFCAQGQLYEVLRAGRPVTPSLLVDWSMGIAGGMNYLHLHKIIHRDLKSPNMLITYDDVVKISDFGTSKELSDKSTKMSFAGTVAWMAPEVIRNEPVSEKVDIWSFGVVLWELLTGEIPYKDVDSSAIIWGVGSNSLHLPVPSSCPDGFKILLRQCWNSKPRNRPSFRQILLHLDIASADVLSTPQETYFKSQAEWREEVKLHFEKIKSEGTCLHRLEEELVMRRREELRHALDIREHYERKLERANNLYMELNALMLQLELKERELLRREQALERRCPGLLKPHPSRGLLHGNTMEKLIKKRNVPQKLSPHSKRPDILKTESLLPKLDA
pIC50: −log10 of the molar value.
Readout Name: pIC50

Worked cases, pIC50 given:
Compound: CCn1ccc(C(C)NC(=O)c2cc(-c3ccc4nc(N)nn4c3)cs2)n1 (stereo not shown) [Compound 331]
pIC50: 6.04
--
Compound: C[C@H](NC(=O)c1cc(-c2cc(C(=O)NCC(F)(F)F)c3nc(N)nn3c2)cs1)c1ccccc1 [Compound 62]
pIC50: 6.92

1. CC(C)NC(=O)c1cc(-c2csc(C(=O)N[C@@H](C)c3ccc(F)cc3)c2)cn2ncnc12 [Compound 391]
2. COc1ccccc1NC(=O)c1cc(-c2ccc3nc(N)nn3c2)cs1 [Compound 228]
3. CC1CCCN(C(=O)c2cc(-c3ccc4nc(N)nn4c3)cs2)C1 (stereo not shown) [Compound 167]
[in] # sort list by recorded pIC50, greatest to least Lab note: final answer is the ordered label list.
[out] 2, 1, 3

* * *

# UniProt O43283: IC50 values follow
Readout Name: IC50 (µM)

Item Smiles: CNC(=O)c1cc(-c2csc(C(=O)NCc3cccc(OC)c3)c2)cn2nc(N)nc12
Recorded Number: 2.2

P. Nc1nc2ccc(-c3csc(C(=O)NC4(c5ccc(F)cc5)CC4)c3)cn2n1
Q. Cc1ccc([C@H](C)NC(=O)c2cc(-c3cc(C(=O)N[C@H]4CCOC4)c4nc(N)nn4c3)cs2)cc1
[in] Identify the item whose IC50 is the smaller number: P or Q Please indicate the selected item by its label.
[out] Q

* * *

Target: LZK (Homo sapiens (Human))
Sequence (O43283 168-409): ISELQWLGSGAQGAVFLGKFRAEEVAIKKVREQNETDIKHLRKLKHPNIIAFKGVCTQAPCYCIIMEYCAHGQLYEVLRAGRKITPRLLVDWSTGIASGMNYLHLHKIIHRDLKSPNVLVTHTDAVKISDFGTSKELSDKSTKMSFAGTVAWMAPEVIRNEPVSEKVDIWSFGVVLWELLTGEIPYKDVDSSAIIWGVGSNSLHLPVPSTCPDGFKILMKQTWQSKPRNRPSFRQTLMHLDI
Assay: LZK biochemical assay (TR-FRET, MKK7 phosphorylation)
Readout Name: IC50 (µM)

Compound: COc1cccc(CNC(=O)c2cc(-c3ccc4nc(N)nn4c3)cs2)c1
Quantity Unit: µM
IC50: 25
--
Compound: CC[C@H](C)NC(=O)c1cc(-c2csc(C(=O)N[C@@H](COC)c3ccccc3)c2)cn2nc(N)nc12
Quantity Unit: µM
IC50: 0.014
--
Compound: COc1cccc(C(CCO)NC(=O)c2cc(-c3ccc4nc(N)nn4c3)cs2)c1 (centres unmarked)
Quantity Unit: µM
IC50: 7.4
--
Compound: CNC(=O)c1cc(-c2csc(C(=O)NCc3ccccc3)c2)cn2nc(N)nc12
Quantity Unit: µM
IC50: 0.99
--
Compound: CC(NC(=O)c1cc(-c2csc(C(=O)NCc3ccc(F)cc3)c2)cn2nc(N)nc12)C(F)(F)F (centres unmarked)
Quantity Unit: µM
IC50: 0.099

P. Nc1nc2ccc(-c3csc(C(=O)NC4(c5ccc(F)cc5)COC4)c3)cn2n1
Q. COc1cncc(CNC(=O)c2cc(-c3ccc4nc(N)nn4c3)cs2)c1
[in] Of the two listed items, P and Q , which carries the larger IC50 figure? Please indicate the selected item by its label.
[out] Q
(Q: 23 µM, P: 7 µM)

* * *

Target: DLK (Homo sapiens (Human))
Assay: DLK biochemical assay (TR-FRET, MKK7 phosphorylation)
Readout Name: IC50 (nM)

Molecule: COc1cccc([C@H](C)NC(=O)c2cc(-c3ccc4nc(N)nn4c3)cs2)c1
Readout Name: IC50
Recorded Number: 355

P. CCNC(=O)c1cc(-c2csc(C(=O)N[C@@H](CC)c3ccccc3)c2)cn2nc(N)nc12
Q. COc1cccc(C2(NC(=O)c3cc(-c4ccc5nc(N)nn5c4)cs3)CC2)c1
R. C[C@H](NC(=O)c1cc(-c2cc(C(=O)NC3CCC3)c3nc(N)nn3c2)cs1)c1ccccc1
[in] # sort list by recorded IC50, greatest to least Lab note: final answer is the ordered label list.
[out] Q, P, R
(Q: 710 nM, P: 12.5 nM, R: 4.35 nM)

I. CC(C)NC(=O)c1cc(-c2csc(C(=O)NCc3ccccc3)c2)cn2nc(N)nc12
II. Nc1nc2ccc(-c3csc(C(=O)NC4CCc5ccccc54)c3)cn2n1 (centres unmarked)
[in] Of the two listed items, I and II , which carries the larger IC50 figure? Please indicate the selected item by its label.
[out] II
(II: 150 nM, I: 17 nM)
